Origin of the recorded values: the supplement of paper PMC9170038

Catalogue of apparent KD of MS2 coat protein values
- System: MS2 coat protein
- MEASUREMENT NOTES: apparent KD of MS2 coat protein, switch OFF state (with FMN for OFF switches, without FMN for ON switches); designed switch direction (-1 OFF switch, 1 ON switch): -1; higher = weaker reporter binding
- RECORDED CONDITIONS: FMN input: 0 or 200 uM; Eterna round: R93 (includes R88 designs)
Remember to quote the unit after the number.

input: What value of apparent KD of MS2 coat protein has been recorded for this entry: AAUAAGUCAGGAUAUACUAAAGAAAUGAAAAGGGAUAAAGAACAUGAGGAUCACCCAUGUAGAAGGGACAAUAA [Sakir-Har]
output: 51.6 nM

input: Entry to check: AAAAAGGGAGGAUAUACAUGAGGAUCACCCAUGUAAAAAAAAAAAAAAGGGAGGGAAGGUAGAAGGCCCAAAAA [Excls3-II]
output: 52.5 nM

input: Entry to check: AAGAAGUCAGGAUAUCGAAGACAGACGAAAAGUCUGUCAAACGAGAAGGGACAUGAGGAUCACCCAUGUAAGAA [What have we learned so far? 64% 1]
output: 60.4 nM

input: Entry to check: AAGAAGGUAGGAUAUACAUGAGGAUCACCCAUGUAAAAGAAAGAAAGGGAAAAGAAAAGUAGAAGGACCAAGAA [Usermaatre Amenemope]
output: 27.4 nM

input: Entry to check: AACAGUACAGGAUAUACAUGAGGAUCACCCAUGUAAAAAUAAUAAAAGGGAAAAACUCGUAGAAGGGUACUGGA [Moding Maslow revisited (73) 16]
output: 104 nM

input: Entry to check: AGUGAGUGAGGAUAUGAGUGAACAACAAAACAAAUAACGACUCAGAAGGCACAUGAGGAUCACCCAUGUACACA [May 68]
output: 22.3 nM

====

Catalogue of apparent KD of K4 kissing-loop reporter values
- System: K4 kissing-loop RNA reporter;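 further: bound reporter read as fluorescence of individual clusters on recovered sequencing chips by microscopy, with normalized cluster intensities fitted with a binding model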
- MEASUREMENT NOTES: apparent KD of K4 kissing-loop reporter; higher = weaker reporter binding
- RECORDED CONDITIONS: Eterna round: R107; input ligand: none
# number only, unit nM dropped from output

Solved entries (count: 2):
input: What value of apparent KD of K4 kissing-loop reporter has been recorded for this entry: AACUGUCAAGGACAACAUUACUGAGGUGAUACCAGCAUCGAAAGAUGCCCUUGGCAGCACUAACUUGCAGUGAUGUUGCAAGUAA [BrourdMod 2 - Jieux - Exclusion - Theophylline A]
output: 193

input: Entry to check: `UCCUAGGCUCGAAAGAGCCUAGGAUUAUCUCAGGAUAUCCGGAAACGGAGAAGGGAGAAACUAGUGAUGUUAGGGAUUCCCUAUU`
output: 213

New cases:
input: What value of apparent KD of K4 kissing-loop reporter has been recorded for this entry: GUCAGACCGGGACUCCAGUGAUGUUGGAGGCAGGAUAUCCAGUCGAGGAGAAGGGCCAGGGAUAUCGAGCUGCUCGGUUUGUAGU [Xexezaes]
output: 77.3

input: Entry to check: CACCAUGAAUUCUCUAGGAGUGAUGUUUUUCGAGGACCGGUACGGCCGCCACUCGGACCAGGAACGUGGGAGCGGCGAAAAGACU [ttmullin]
output: 688

input: Entry to check: `GUCUAGCUAGCAGGAUAUAGCUGGUAGUGAUGUUACCACUAGAACUCUGCGGAAACGCAGAGUAUCCUAGAAGGGCUAGCUAGAC`
output: 75.4

input: Entry to check: `GGUAGCAUGGCGGCCGCCACUAGAUCAGUGAUGUUGAUCCCGCCGUCUUACGGCGAGUCAGAGGCUAGGACCGGGCCAUGCUACC`
output: 490

input: Entry to check: AGUAGUUGGACGGCCGCCACUAGAACAGCUUUGCCAAAGGCAGAGCACUAGAGUGAUGUUCUAGCUAGGACCGGGUCCAACUACA [Omei KL Tryp B SS A v1]
output: 54.2

input: Entry to check: AGGUCCGAGCCUGCAAAGGCUCGGACCUGUUAGGAUAUGACGUUAUUCAGAAGGGAUGGGUGGAGUGAUGUUCCACCCGCAAGGG [#2 Same State - FMN A Attempt #7 (HarryS)]
output: 120

input: Entry to check: AGUGAUAUAUGAGGAUAUGGGUUGGUUAAUGAGUUAGUUUUAGUGUUGUUUGGUUAGUGAUGUUAUUUAGAAGGCGUGAGUGAUG [sffdsmullin]
output: 81.8

====

Catalogue of apparent KD of MS2 coat protein values
- Tested on: MS2 coat protein
- MEASUREMENT NOTES: apparent KD of MS2 coat protein; designed switch direction (-1 OFF switch, 1 ON switch): 1; higher = weaker reporter binding
- RECORDED CONDITIONS: input ligand: FMN 200 uM
# number only, unit nM dropped from output

input: What value of apparent KD of MS2 coat protein has been recorded for this entry: UGGCUCAGAGCAGGAUAUAUGCGAUCACAUGAGGAUCACCCAUGUCUCGAGCUUCGGCUCGAGGCAUAGAAGGGCUCUGAGCCA [SSNG2/4-B2] (Eterna round: R96, puzzle: Same State NG 2)
output: 14.4

input: Entry to check: CGUCGUUUGAUAGGAUAUCGCUUUACAUGAGGAUCACCCAUGUUUACCUCGCUGGUUUUUCUUUCCGAGAAGGAUUCUGAUGUU [salish99_SSNG02_r04_030] (Eterna round: R96, puzzle: Same State NG 2)
output: 43.4

New cases:
input: What value of apparent KD of MS2 coat protein has been recorded for this entry: GGUAGGUUACUACCAAACAACAUGAGGAUCACCCAUGUGUGGAAGGAUAUGGUACCUAUUUGGUACCAGAAGGUCCAAUUAAUU [Fiskers NG3ss - 4] (Eterna round: R96, puzzle: Same State NG 3)
output: 72.3

====

- System: MS2 coat protein
- MEASUREMENT NOTES: apparent KD of MS2 coat protein; designed switch direction (-1 OFF switch, 1 ON switch): -1; higher = weaker reporter binding
- RECORDED CONDITIONS: input ligand: microRNA oligo, concentration not stated
Please use yes whenever apparent KD of MS2 coat protein is not below 20 nM, and no whenever it is.

Known results for sequences:
input: Quick check: does CGUGUGUGAGGAUAUGACAAUGGUAUCUUCGGAUACCAUUGUCAGAAGGUACAUGAGGAUCACCCAUGUAGAUC [Exclusion 4 - Mod Brourd Ex 4-3: 20 v.2] (Eterna round: R96, puzzle: Exclusion 4) have apparent KD of MS2 coat protein greater than or equal to 20 nM?
output: yes

input: Entry to check: UAACAUGUCUGAGGAUAUCUGCACGUUUAGUGCAGAGAAGGCAGAACAUGAGGAUCACCCAUGUAGAUCAUUAAUUAAUUAAUU [ENG1/7-B2] (Eterna round: R96, puzzle: Exclusion NG 1)
output: yes

input: Entry to check: UUUGAAUAGGUAGGAUAUACAUACAUUCCUACAUUACUAACAUGAGGAUCACCCAUGUAUACAUUGUAGAAGGACCAGAUUGAU [JR_ExcNG2_Sub039] (Eterna round: R96, puzzle: Exclusion NG 2)
output: no

input: Entry to check: ACAUGUCAUCGAGGAUAUUGGACACAUGAGGAUCACCCAUGUACUCGGAGGCUCUACCAUGAGUUCGAGAAGGCGAUGUACAUG [Ex NG2 #76] (Eterna round: R96, puzzle: Exclusion NG 2)
output: yes

input: Entry to check: AGAGUGCUGCGAGGAUAUACAUGAGGAUCACCCAUGUAAAUGUGUGAGGCUUUGCCUCACACAAUGUAGAAGGCGCAGUACUCU [Mat - Exclusion NG 2 - Mod of JL - D1] (Eterna round: R96, puzzle: Exclusion NG 2)
output: no

input: Entry to check: AGUACUGACACGUCGGUGUUAGUACAAUAAGCUUGUGAAACAUGAGGAUCACCCAUGUCCUCAUAAGCUCGUCUUAU [salish99_TOv2_r3_081] (Eterna round: R96, puzzle: Sensor v3, turn-off variant 2)
output: yes

New cases:
input: Quick check: does UGAGUGCUGCGAGGAUAUACAUGAGGAUCACCCAUGUUUAGGUGUGAGGCUUUGCCUCACACCAUGUAGAAGGCGCAGUACUCU [JL ENG2 1.07] (Eterna round: R96, puzzle: Exclusion NG 2) have apparent KD of MS2 coat protein greater than or equal to 20 nM?
output: no

input: Entry to check: AGUACUAUCACGAAAGUGAUAGUACAAUUGAGCUUUUGAACAUGAGGAUCACCCAUGUCCUCAUAAGCUCGUCUUAA [Mat - Sensor v2 - var 2 - Mod - D171] (Eterna round: R96, puzzle: Sensor v2, turn-off variant 2)
output: yes

input: Entry to check: UUGGUUGUGGUAGGAUAUCCGUUGGAAACCUUCGGAGAAGGACCACAGUCACUGGGUCUUUGUCUGGUGGACGGUGAAAACCGU [pwkr exNG1 F6.22] (Eterna round: R96, puzzle: Exclusion NG 1)
output: yes

input: Entry to check: AAUGAUUGACGAGGAUAUUGUGUUAGAUCACGACGAGAAGGCGUUUGUCACAUGAGGAUCACCCAUGUGAGCCUUGUGGAUAGA [Ex NG1 #76] (Eterna round: R96, puzzle: Exclusion NG 1)
output: no

input: Entry to check: UUUUAACAUGAGGAUCACCCAUGUGAGGAUAUGGUUUUUUUUUUUUUUUUUUUUUUUUCCAGAAGGCACAUUUU [My solution] (Eterna round: R96, puzzle: Exclusion 1)
output: yes

input: Entry to check: GACAUGAGGAUCACCCAUGUAACCAGGGCAAUUCUCGAAAUGGAGGAUAUGAAUCUUAAUUAGGUUCAGAAGGCCAGAAGGCUA [Eternabot solution 29] (Eterna round: R96, puzzle: Exclusion NG 3)
output: yes

input: Entry to check: AACAGUACAGGAUAUACAUGAGGAUCACCCAUGUGAGACUUAAGUGGCGUACCACAAAGUAGAAGGGUACUGGA [JL Maslow Revisted mod 8] (Eterna round: R96, puzzle: Exclusion 3)
output: yes

input: Entry to check: AGGAGGAGUUCAGGAUAUUCGACAUGAGGAUCACCCAUGUGGGUAAUAUAUAGUAAAGAGAUAGAGAAGAAGGGAAGGGAGGAG [Exclusion NG2] (Eterna round: R96, puzzle: Exclusion NG 2)
output: yes
